Experiment: HRP/luminol detection interference without ALR, dose response, artefact control for ALR inhibitor project, biochemical, luminescence, no ALR or DTT, cherry-pick (AID 540356)
Details: HRP/H2O2 luminol luminescence counterscreen; series mostly up to 10 µM
Among all 2,500 compounds or so, about 360 (14%) were called active.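 How the source made its calls: active means signal-lowering compounds whose fitted half-maximal concentration AC50 is no higher than ten times their top tested concentration; inconclusive means flat curve with 30 to 70% inhibition, or poor fit; inactive means flat within 30%, signal increase, or AC50 above limit.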 Not all results are given here.
Hello, when you answer, please use one of the following outcomes: active, inactive

Exam item: # outcome recorded in this test, key = COc1cc(C(=O)n2nc(C)cc2C)ccc1O
Marked response: inactive

Exam item: Here is the next compound: CC(C)c1ccc(NC2CCCN(C(=O)CCCn3cncn3)C2)cc1 (centres undefined)
Marked response: inactive

Exam item: Here is the next compound: N#Cc1cnn(-c2ccccc2)c1NC(=O)CN1CCN(c2ccccc2)CC1
Marked response: inactive

Exam item: Here is the next compound: O=C(NNc1c2ccccc2nc2ccccc12)c1ccccc1O
Marked response: inactive

Exam item: Here is the next compound: CN(C)c1ccc(CN(C(=O)c2ccccc2Br)C2CCS(=O)(=O)C2)cc1 (centres undefined)
Marked response: inactive

Exam item: Here is the next compound: O=C(NCC(c1ccco1)N1CCc2ccccc21)c1ccccc1F (centres undefined)
Marked response: inactive

Exam item: Here is the next compound: COc1ccccc1NC(=O)Nc1ncccc1C
Marked response: inactive

Exam item: Here is the next compound: O=C(N/N=C\c1cccc(Cl)c1)c1ccc(Cn2cccn2)o1
Marked response: inactive

Exam item: Here is the next compound: COc1ccccc1N1CCN(S(=O)(=O)c2ccccc2)CC1
Marked response: inactive

Exam item: Here is the next compound: CCN(CCCNC(=O)CN(C)S(=O)(=O)c1cccc2nsnc12)c1cccc(C)c1
Marked response: inactive

Exam item: Here is the next compound: COc1cc(C(=S)N(C)C)ccc1O
Marked response: inactive

Exam item: Here is the next compound: COc1ccccc1N1CCN(CCc2n[nH]c(=S)n2-c2ccccc2)CC1
Marked response: inactive

Exam item: Here is the next compound: Cn1c(CNS(=O)(=O)c2ccc(Br)cc2)n[nH]c1=S
Marked response: inactive

Exam item: Here is the next compound: COc1ccc(OC)c(CNc2ccc3c(c2)nc(C)n3C)c1
Marked response: inactive

Exam item: Here is the next compound: CSc1nc(O)c(Nc2cccc(Cl)c2)c(=O)[nH]1
Marked response: inactive

Exam item: Here is the next compound: Cc1c(Cl)c(-c2n[nH]c(=S)n2-c2ccccc2)nn1C
Marked response: inactive

Exam item: Here is the next compound: COc1ccc(C2=CSC3=NNC4(CCCCC4)NN23)cc1
Marked response: inactive

Exam item: Here is the next compound: CCS(=O)(=O)N1Cc2ccccc2CC1C(=O)N1CCN(c2ccccc2)CC1 (centres undefined)
Marked response: inactive

Exam item: Here is the next compound: COc1cc(OC)cc(-c2cn[nH]c2N)c1
Marked response: inactive

Exam item: Here is the next compound: COc1cc(/C=N/NC(=O)c2ccc(CSc3nncn3C)cc2)cc(OC)c1O
Marked response: inactive

Exam item: Here is the next compound: COc1ccc(CC(=O)N2CCN=C2SCc2ccc([N+](=O)[O-])cc2)cc1
Marked response: inactive

Exam item: Here is the next compound: COc1cc(-c2csc(CCn3nc(C)cc3C)n2)cc(OC)c1OC
Marked response: inactive

Exam item: Here is the next compound: Cc1occc1C(=O)N1CCCC(Nc2ccc(C(C)C)cc2)C1 (centres undefined)
Marked response: inactive

Exam item: Here is the next compound: COc1ccc(-c2cn[nH]c2N)c(OC)c1
Marked response: active
